From: PubChem BioAssay (NCI)

test system: UACC-257 melanoma; experiment: NCI tumour cell line growth inhibition, 48 h
Listing of entries alongside the reported GI50.

Example entries begin here.
[
  {
    "MOLECULE": "N#C/C(=C1C=C/C(=N/O)C(Br)=C/1)c1ccccc1",
    "RESULT VALUE": "6.61 µM"
  },
  {
    "MOLECULE": "Cc1ccc(S(=O)(=O)N(CCOc2ccc(/C(N)=N/Cl)cc2)CCOc2ccc(/C(N)=N\\Cl)cc2)cc1",
    "RESULT VALUE": "23.3 µM"
  },
  {
    "MOLECULE": "COc1cc2c3c(n(C)c(=O)c2cc1OC)-c1cc2c(cc1/C3=C\\CCCN1C(=O)c3ccccc3C1=O)OCO2",
    "RESULT VALUE": "> 40 µM"
  }
]

For Cc1nn(CN2CCN(C)CC2)c(=S)n1/N=C/c1cccc2ccccc12 , what is its reported GI50? 22.2 µM

Data request, read-out GI50, for O=C(CI)NC1Oc2ccccc2-c2oc(=O)c(-c3ccccc3)cc21 (stereo not drawn) 2.07 µM

Please give the measured GI50 for this molecule: C[C@]12CC[C@H](O)CC1=CC[C@@H]1[C@@H]2CC[C@]2(C)C(c3cccnc3)=CC[C@@H]12 > 100 µM

May I ask what GI50 has been recorded for CN(C)CCNc1cc(-c2ccccc2)nc2ccccc12 ? 11.5 µM

Record request: GI50 value, item CCCCC(=O)OCC1OC(n2cnc3c(=S)nc[nH]c32)C(OC(=O)CCCC)C1OC(=O)CCCC (stereo not drawn) 11.9 µM

* * *

Item-by-item account of TGI
tested on: A498 renal; experiment: NCI tumour cell line growth inhibition, 48 h

Can you look up the measured TGI of COCOC1/C=C/CCCCC2=C(C)C=C(C1)O2 (stereo not given) for me? > 100 µM

# get_value(readout='TGI', item= CCOC(=O)c1csc(NC(=O)CCN(CC)CC)n1 ) > 100 µM

* * *

Recorded TGI values for a group of compounds are listed next.
tested on: MOLT-4 leukemia; assay: NCI tumour cell line growth inhibition, 48 h

[
  {
    "MOLECULE": "C#CCCCCC#Cc1ccccc1C(=O)OC",
    "TEST SYSTEM": "MOLT-4 leukemia",
    "RESULT TYPE": "TGI",
    "RESULT VALUE": "38.3 µM"
  },
  {
    "MOLECULE": "Cc1cc(N(CCOS(C)(=O)=O)CCOS(C)(=O)=O)ccc1C=Nc1ccc(-c2nc(Cc3ccccc3)sc2C)cc1",
    "TEST SYSTEM": "MOLT-4 leukemia",
    "RESULT TYPE": "TGI",
    "RESULT VALUE": "22.4 µM"
  },
  {
    "MOLECULE": "CCc1c(Oc2ccc(C(C)=O)cc2)c2ccccc2[nH]c1=O",
    "TEST SYSTEM": "MOLT-4 leukemia",
    "RESULT TYPE": "TGI",
    "RESULT VALUE": "> 100 µM"
  },
  {
    "MOLECULE": "O=C1/C(=C/c2ccccc2)N=C(c2ccccc2)N1n1c(-c2ccccc2)nc2ccccc2c1=O",
    "TEST SYSTEM": "MOLT-4 leukemia",
    "RESULT TYPE": "TGI",
    "RESULT VALUE": "> 100 µM"
  }
]

Next, consider the following compound.
Entry N#Cc1ccc(C#Cc2ccccc2C#CCCCCO)cc1 has what TGI? 37.7 µM

* * *

# TGI per record follows
system: HOP-62 NSCLC; test: NCI tumour cell line growth inhibition, 48 h
Where a SMILES comes first, the peptide text is derived from it. The star is where a group is joined. Boc = CC(C)(C)OC(=O)*

[
  {
    "MOLECULE": "COC(=O)CC(C(C(=O)OC)C(=O)OC)N1C(=O)OCC1c1ccccc1 (centres undefined)",
    "TEST SYSTEM": "HOP-62 NSCLC",
    "RESULT TYPE": "TGI",
    "RESULT VALUE": "> 100 µM"
  },
  {
    "MOLECULE": "Cn1c(N2NC(=O)C(N=Nc3ccc(S(N)(=O)=O)cc3)C2=O)nc(-c2ccco2)c(C#N)c1=O (centres undefined)",
    "TEST SYSTEM": "HOP-62 NSCLC",
    "RESULT TYPE": "TGI",
    "RESULT VALUE": "> 50 µM"
  },
  {
    "MOLECULE": "COc1cccc(-c2cc(=O)c3cc(N(C)C)ccc3[nH]2)c1",
    "TEST SYSTEM": "HOP-62 NSCLC",
    "RESULT TYPE": "TGI",
    "RESULT VALUE": "> 100 µM"
  },
  {
    "MOLECULE": "COc1cc2c(cc1OC)C1=Cc3cc(OC)c(OC)cc3C(C)N1C=C2 (centres undefined)",
    "TEST SYSTEM": "HOP-62 NSCLC",
    "RESULT TYPE": "TGI",
    "RESULT VALUE": "> 100 µM"
  },
  {
    "MOLECULE": "COC(=O)CNC(=O)C(Cc1ccccc1)NC(=O)C(CCSC)NC(=O)C(Cc1ccc(O)cc1)NC(=O)OC(C)(C)C (centres undefined) (Boc-YMFG-OMe; configuration not given here)",
    "TEST SYSTEM": "HOP-62 NSCLC",
    "RESULT TYPE": "TGI",
    "RESULT VALUE": "> 100 µM"
  }
]

With those in mind, consider the next molecule.
Requested field: TGI. Item: S=C(N/N=C\C=N/NC(=S)N1CCCCC1)N1CCCCC1 > 21.1 µM

* * *

system: HCT-15 colon; experiment: NCI tumour cell line growth inhibition, 48 h
Decision: TGI >= 20 µM yields class 1, all other cases yield class 0.

Is TGI for Nc1ccn(C2O[C@H](CO)[C@@H](O)[C@@H]2O)c(=O)n1 (stereo partly specified) at or above 20 µM? class 1

Answer whether TGI of COc1ccc(-n2c(=O)c3[nH]cnc3n(-c3ccc(OC)cc3)c2=S)cc1 is greater than or equal to 20 µM. class 1

* * *

As shown below, each of these molecules has a reported TGI value.
system: RXF 393 renal; experiment: NCI tumour cell line growth inhibition, 48 h

[
  {
    "MOLECULE": "CC1CCC2(C(=O)O)CCC3(C)C(=CCC4C5(C)CC(O)C(O)C(C)(CO)C5C(O)CC43C)C2C1C (centres undefined)",
    "TGI": "> 64.1 µM"
  }
]

Looking for the measured TGI of Cc1c(-c2nc3ccccc3[nH]2)c(=O)n(-c2ccccc2)n1C , can you help? > 100 µM

GET /values?readout=TGI&item= COC(=O)CCCCN=Cc1c(O)c(O)c(C(C)C)c2cc(C)c(-c3c(C)cc4c(C(C)C)c(O)c(O)c(C=NCCCCC(=O)OC)c4c3O)c(O)c12 3.18 µM

Item OC1C2[C@@H](O)CCCN2C[C@@H](O)[C@H]1O (some centres undefined) has what recorded TGI? > 100 µM

Recorded TGI of CSc1ccc(C2=NN(C(C)=O)C(c3cc(C)cs3)C2)cc1 (centres undefined) , please. > 100 µM

* * *

GI50 values, listed per item
tested on: IGROV1 ovarian; assay: NCI tumour cell line growth inhibition, 48 h

Worked set:
[
  {
    "COMPOUND": "Cn1cc(-c2cnc3ccc(NC(=O)Nc4ccc(F)c(Br)c4)cc3n2)cn1",
    "TEST SYSTEM": "IGROV1 ovarian",
    "RESULT VALUE": "1600 nM"
  },
  {
    "COMPOUND": "CCCCC(=O)OCC1OC(n2cnc3c(=S)nc[nH]c32)C(OC(=O)CCCC)C1OC(=O)CCCC (stereo not given)",
    "TEST SYSTEM": "IGROV1 ovarian",
    "RESULT VALUE": "3860 nM"
  },
  {
    "COMPOUND": "COC(=O)c1cc2c3ccccc3[nH]c2c2ncccc12",
    "TEST SYSTEM": "IGROV1 ovarian",
    "RESULT VALUE": "2090 nM"
  },
  {
    "COMPOUND": "CCOc1cccc(/C=N/NC(=O)c2ccccc2Nc2ccnc(C(F)(F)F)c2)c1O",
    "TEST SYSTEM": "IGROV1 ovarian",
    "RESULT VALUE": "42.5 nM"
  },
  {
    "COMPOUND": "O=C(O)CCCCC(CCSCc1ccccc1)SCc1ccccc1 (stereo not given)",
    "TEST SYSTEM": "IGROV1 ovarian",
    "RESULT VALUE": "42400 nM"
  },
  {
    "COMPOUND": "Cc1ccc2c(c1)C(=O)/C(=C/c1ncc([N+](=O)[O-])n1C)O2",
    "TEST SYSTEM": "IGROV1 ovarian",
    "RESULT VALUE": "1960 nM"
  }
]

What GI50 value was documented for this compound, COc1cccc(/C=N/NC(=O)c2ccccc2Nc2ccnc(C(F)(F)F)c2)c1O ? 23.4 nM

GI50 lookup needed for Cc1ccc(S(=O)(=O)N(CCOc2ccc(/C(N)=N/Cl)cc2)CCOc2ccc(/C(N)=N\Cl)cc2)cc1 , thanks. 11700 nM

Data request, read-out GI50, for CC1=C(CCCNS(C)(=O)=O)C2=C(C)C3(CC3)[C@@](C)(O)C(=O)C2=C1 259 nM

Would you kindly share the measured GI50 for CN(C)CCNc1cc(-c2ccccc2)nc2ccccc12 ? 6570 nM
